# Tested on: HOP-92 NSCLC
# assayOverview: NCI-60 one-dose screen, 48 h (100 = growth as untreated, 0 = no growth, -100 = all killed)
# condition: 10 µM unless noted
This is part of a sample that, as a whole, favours compounds with a hit. Of some 83,000 tested, about 20% had one in any assay. Active and inactive are the calls of the source. Rule for the calls: active = growth percent below 10; inactive = the rest.
This section presents molecules with their documented growth values.
measuredParameter: growth

> print(dat)
                                    molecule                  reported
 1  COc1ccc2c(c1)c(-c1noc(C(=O)c3cn(C)c4ncc(Br)cc34)n1)cn2C            7.92% (active)
 2                  Cc1cccc([N+](=O)[O-])c1I          87.4% (inactive)
 3  Cn1cc(-c2nnc(-c3cn(C)c4ncc(Br)cc34)o2)c2ccccc21          77.1% (inactive)
 4  C=C(C)[C@@H]1CC[C@]2(COCCC#N)CC[C@]3(C)[C@H](CC[C@@H]4[C@@](C)(CCCNCCC#N)[C@H](C(=C)C)CC[C@]43C)[C@@H]12  -14.6% [100 µM] (active)
 5  CCCCCCCCCN(CCCCCCCCC)C(C)C(=O)c1ccc2cc(Br)c3ccccc3c2c1 (stereo not given)          72.8% (inactive)
 6              Brc1ccc2c(c1)CN(C1CCCCC1)CO2          89.3% (inactive)
 7  O=C1Cc2c(sc3c(F)cccc23)C(c2ccccc2[N+](=O)[O-])N1 (stereo not given)          92.2% (inactive)
 8  Cn1cc(-c2nnc(-c3cn(C)c4ncccc34)o2)c2ccccc21            7.94% (active)
 9       C=CCCCCOc1ccccc1-c1cnc(OCCCCC=C)n1C          75.2% (inactive)
10              CCOC(=O)c1c[nH]n2c(=S)ncnc12           113% (inactive)

---

# System: UO-31 renal
# assayOverview: NCI-60 one-dose screen, 48 h
# condition: 10 µM unless noted
The panel holds about 83,000 compounds, 20% with a hit somewhere; the sample as a whole holds those more often. Active and inactive are the calls of the source. How the source made its calls: active means growth percent below 10; inactive means the rest.
Labels: t (active), f (inactive)

> print(dat)
                                    compound  assignedlabel
 1  CCCCC(CCCCCC(CCCC)C1NC(C)Cc2cc(OC)c(OC)cc21)C1NC(C)Cc2cc(OC)c(OC)cc21 (stereo not given)              t
 2  C=C(C)[C@@H]1CC[C@]2(COCCC#N)CC[C@]3(C)[C@H](CC[C@@H]4[C@@](C)(CCCNCCC#N)[C@H](C(=C)C)CC[C@]43C)[C@@H]12              f
 3       CCCCCCNC(=O)Nc1ncnc2c1ncn2-c1ccccc1              f
 4  CCN(CC)c1ccc2cc(C(Nc3ccc(Br)c(C(F)(F)F)c3)c3nnnn3C(C)(C)C)c(=O)oc2c1 (stereo not given)              f
 5  O=C(O)c1cn(C2CC2)c2cc(N3CCN(Cc4c(O)ccc5ccccc45)CC3)c(F)cc2c1=O              f
 6  COc1ccc(C2=C(c3cn(C)c4ccccc34)C(=O)OC2)cc1OC              f
 7                   CC(C)CSc1ncnc2nc[nH]c12              f
 8  CC(C)[C@H]1CCC2=C3CC[C@]45OC(=O)[C@@]6(CCC(C)(C)C[C@H]64)CC[C@@]5(C)[C@]3(C)CC[C@@]21C              f
 9           CCOC(=O)/C(C#N)=C(\C)CCc1ccccc1              f
10  O=C1CC(c2ccc3c(c2)OCO3)Nc2ccccc21 (stereo not given)              f

---

# Test system: HCC-2998 colon
# assayOverview: NCI-60 one-dose screen, 48 h
# condition: 10 µM unless noted
About 83,000 compounds went through this panel and 20% of them were active in at least one assay; those are over-represented in the sample as a whole. Activity calls are given as the source filed them. The calls were made as follows: active = growth percent below 10; inactive = the rest.
Labels: active, inactive

> print(dat)
                                   compound   subjectoftest  assignedlabel
1  C=C(C)[C@@H]1CC[C@]2(C(=O)OC)CC[C@]3(C)[C@H](CC[C@@H]4[C@@](C)(CCc5nn[nH]n5)[C@H](C(=C)C)CC[C@]43C)[C@@H]12  HCC-2998 colon         active
2  CC1(C(=O)O)CCC(N)(C(=O)O)C1(C)C (centres undefined)  HCC-2998 colon       inactive
3                           Cc1ccc(N)c(O)c1  HCC-2998 colon         active
4  Clc1ccc(N2CCN(CCCN3CCN(c4cccc(Cl)c4)CC3)CC2)cc1  HCC-2998 colon       inactive
5  COc1ccc(C2CC(c3ccc4ccccc4c3)=NN2c2nc(O)c(C3=c4cc(OC)ccc4=NC3=O)s2)cc1 (centres undefined)  HCC-2998 colon         active
6  O=C(Nc1ccc(Cl)c(C(F)(F)F)c1)Nc1ccc(-c2cccnc2)cc1N1CCC(CO)CC1  HCC-2998 colon       inactive
7  C[C@]12CCc3c(ccc4cc(O)ccc34)[C@@H]1CC[C@H]2O  HCC-2998 colon       inactive
8  COc1cc(C)cc2oc3oc(=O)c(C(=O)c4cc5cc(Br)ccc5o4)cc3c(=O)c12  HCC-2998 colon       inactive
9  CC(C)(C)c1cc(C(=O)Nc2cc3ccccc3cc2C(=O)NCCN)cc(C(C)(C)C)c1  HCC-2998 colon         active

---

# Test system: M14 melanoma
# assayOverview: NCI-60 one-dose screen, 48 h (100 = growth as untreated, 0 = no growth, -100 = all killed)
# condition: 10 µM unless noted
This is part of a sample that, as a whole, favours compounds with a hit. Of some 83,000 tested, about 20% had one in any assay.
// reported growth per item
measuredParameter: growth (%)

> print(dat)
                                    molecule  subjectoftest  measuredparameter  measurementunits  reported
 1  Cn1cc(-c2noc(-c3cn(C)c4ncc(F)cc34)n2)c2ccccc21   M14 melanoma             growth                 %      71.7
 2    CCN(CC)c1ccc(/C=C/C=C2\NC(=O)NC2=O)cc1   M14 melanoma             growth                 %      17.7
 3  Nc1cccc2c1C(=O)c1cccc(NC(=O)c3ccccc3)c1C2=O   M14 melanoma             growth                 %      14.2
 4  COc1cc2c(cc1OCCCN1CCN(CCCOc3cc4c(cc3OC)C(=O)N3C[C@H](F)C[C@H]3C=N4)CC1)N=C[C@@H]1C[C@@H](F)CN1C2=O   M14 melanoma             growth                 %     -7.96
 5  O=C(Nc1ccc(Oc2ccc(F)cc2)c(Cl)c1)c1cccnn1   M14 melanoma             growth                 %       114
 6           NC1=NC(=O)NC1(c1ccccc1)c1ccccc1   M14 melanoma             growth                 %      98.6
 7  O=[N+]([O-])c1cccc(/C=C/c2ccc3ccccc3n2)c1   M14 melanoma             growth                 %      82.3
 8  O=C(C[n+]1ccn(CC(OCc2ccc(Cl)cc2Cl)c2ccc(Cl)cc2Cl)c1)c1ccc(F)cc1 (stereo not given)   M14 melanoma             growth                 %     -97.3
 9  CCc1ccc(C2=C/C(=C/c3ccccc3)C(=O)N2CCc2ccc(S(N)(=O)=O)cc2)cc1   M14 melanoma             growth                 %      99.4
10  Cc1ncc(C(=O)Nc2ccc(CN3CCN(C)CC3)c(C(F)(F)F)c2)cc1C#Cc1c(N)ncc2ccc(C#N)cc12   M14 melanoma             growth                 %       -12

---

# Test system: CCRF-CEM leukemia
# assayOverview: NCI-60 one-dose screen, 48 h
# condition: 10 µM unless noted
The panel holds about 83,000 compounds, 20% with a hit somewhere; the sample as a whole holds those more often. Calls of active or inactive are those of the source. Rule for the calls: active = growth percent below 10; inactive = the rest.
Possible outcomes: active, inactive

> print(dat)
                                   compound      subjectoftest  assignedlabel
1  [2H]C1([2H])CCN(C(=O)C2CC2)c2cc(NS(=O)(=O)c3ccc(-c4cccc(C(N)=O)c4)cc3)ccc21  CCRF-CEM leukemia       inactive
2  O=C(Nc1cc(F)cc2cccnc12)c1cnc(N2CCNCC2)cn1  CCRF-CEM leukemia       inactive
3  O=C(N=c1n(-c2ccccc2)nc2n1CCN2C1=NCCN1C(=O)c1ccc(Cl)cc1)c1ccc(Cl)cc1  CCRF-CEM leukemia       inactive
4  COc1ccc(C2CC(c3ccc4ccccc4c3)=NN2c2nc(O)c(C3=c4cc(OC)ccc4=NC3=O)s2)cc1 (centres undefined)  CCRF-CEM leukemia         active
5  COCCCNc1nc(NC(=O)c2cc(Br)cc(C(F)(F)F)c2)cc(-c2cccnc2)n1  CCRF-CEM leukemia       inactive
6  O=C1COCCN1c1ccc(NCc2cn(Cc3ccccc3)c3ccccc23)cc1  CCRF-CEM leukemia       inactive
7  COc1c(C(C)=O)c(OCCCCOc2c(C(C)=O)c(OC)c3ccoc3c2OC)c(OC)c2occc12  CCRF-CEM leukemia       inactive
8  Cn1cc(-c2noc(-c3cn(C)c4ncc(Br)cc34)n2)c2cc(Cl)ccc21  CCRF-CEM leukemia       inactive
9        COc1ccc(C=C2c3ccccc3-c3ccccc32)cc1  CCRF-CEM leukemia       inactive
